Sourced from patent US8883963B2

Listed next: entries and their corresponding half-life at 2 μM.
Assay: Stability in simulated intestinal fluid
Type: in vitro ADME
Details: 2 μM peptidomimetic, simulated intestinal fluid pH 7.5, 37° C.; read-out: half-life (t1/2) when incubated with simulated intestinal fluid
Non-standard residues stand in square brackets, D forms with d. Residues, ends and D or L forms follow the SMILES beside them. ξ: configuration not given here. *: point of attachment. X3 = CCc1cc(OC)ccc1-c1ccc(CC(N*)C(=S)NC(CCCc2ccccc2)C(N)=O)cc1; Leu(5,5,5,5',5',5'-F6) = N[C@@H](CC(C(F)(F)F)C(F)(F)F)C(=O)O; ξαMePhe(2-F) = CC(N)(Cc1ccccc1F)C(=O)O; aThr = C[C@H](O)[C@H](N)C(=O)O; Aib = CC(C)(N)C(=O)O

Name the recorded half-life at 2 μM of the item CCc1cc(OC)ccc1-c1ccc(CC(NC(=O)[C@H](CC(=O)O)NC(=O)[C@H](CO)NC(=O)[C@@H](NC(=O)C(C)(Cc2ccccc2F)NC(=O)[C@@H](NC(=O)CNC(=O)[C@H](CC(C(F)(F)F)C(F)(F)F)NC(=O)C(C)(C)NC(=O)[C@@H](N)Cc2c[nH]cn2)[C@H](C)O)[C@@H](C)O)C(=O)NC(CCCc2ccccc2)C(N)=O)cc1 (some centres unmarked) in your answer.
30 min

Name the recorded half-life at 2 μM of the item CCc1cc(OC)ccc1-c1ccc(CC(NC(=S)[C@H](CC(=O)O)NC(=O)[C@H](CO)NC(=O)[C@@H](NC(=O)C(C)(Cc2ccccc2F)NC(=O)[C@@H](NC(=O)CNC(=O)C(CCC#N)NC(=O)C(C)(C)NC(=O)[C@@H](N)Cc2c[nH]cn2)[C@H](C)O)[C@H](C)O)C(=S)NC(CCCc2ccccc2F)C(N)=O)cc1 (single isomer, unassigned) in your answer.
> 1440 min

Name the recorded half-life at 2 μM of the item CCc1cc(OC)ccc1-c1ccc(CC(NC(=O)[C@H](CC(=O)O)NC(=O)[C@H](CO)NC(=O)[C@@H](NC(=O)[C@H](Cc2ccccc2)NC(=O)[C@@H](NC(=O)CNC(=O)C(CCC#N)NC(=O)C(C)(C)NC(=O)[C@@H](N)Cc2c[nH]cn2)[C@@H](C)O)[C@@H](C)O)C(=O)NC(CCCc2ccccc2Cl)C(N)=O)cc1 (single isomer, unassigned) in your answer.
> 1440 min

Name the recorded half-life at 2 μM of the item CCc1cc(OC)ccc1-c1ccc(CC(NC(=O)[C@H](CC(=O)O)NC(=O)[C@H](CO)NC(=O)[C@@H](NC(=O)[C@H](Cc2ccccc2)NC(=O)[C@@H](NC(=O)CNC(=O)C(CCC#N)NC(=O)C(C)(C)NC(=O)[C@@H](N)Cc2c[nH]cn2)[C@@H](C)O)[C@@H](C)O)C(=O)NC(CCCc2ccccc2F)C(N)=O)cc1 (single isomer, unassigned) in your answer.
30 min

Name the recorded half-life at 2 μM of the item CCc1cc(OC)ccc1-c1ccc(CC(CNC(CCCc2ccccc2F)C(N)=O)NC[C@H](CC(=O)O)NC(=O)[C@H](CO)NC(=O)[C@@H](NC(=O)C(C)(Cc2ccccc2F)NC(=O)[C@@H](NC(=O)CNC(=O)C(CCC#N)NC(=O)C(C)(C)NC(=O)[C@@H](N)Cc2c[nH]cn2)[C@H](C)O)[C@H](C)O)cc1 (single isomer, unassigned) in your answer.
> 1440 min

Name the recorded half-life at 2 μM of the item CCc1cc(OC)ccc1-c1ccc(CC(NC(=O)[C@H](CC(=O)O)NC(=O)[C@H](CO)NC(=O)[C@@H](NC(=O)C(C)(Cc2ccccc2F)NC(=O)[C@@H](NC(=O)CNC(=O)[C@H](CC(C(F)(F)F)C(F)(F)F)NC(=O)C(C)(C)NC(=O)[C@@H](N)Cc2c[nH]cn2)[C@H](C)O)[C@H](C)O)C(=S)NC(CCCc2ccccc2)C(N)=O)cc1 (some centres unmarked) [compound 219] (H-H[Aib][Leu(5,5,5,5',5',5'-F6)]G[aThr][ξαMePhe(2-F)][aThr]SD-X3) in your answer.
> 1440 min

Name the recorded half-life at 2 μM of the item CCc1cc(OC)ccc1-c1ccc(CC(NC(=O)[C@H](CC(=O)O)NC(=O)[C@H](CO)NC(=O)[C@@H](NC(=O)[C@H](Cc2ccccc2)NC(=O)[C@@H](NC(=O)CNC(=O)C(CCC#N)NC(=O)C(C)(C)NC(=O)[C@@H](N)Cc2c[nH]cn2)[C@@H](C)O)[C@@H](C)O)C(=O)NC(CCCc2ccc(OC)cc2Cl)C(N)=O)cc1 (single isomer, unassigned) in your answer.
> 1440 min

Name the recorded half-life at 2 μM of the item CCc1cc(OC)ccc1-c1ccc(CC(NC(=O)[C@H](CC(=O)O)NC(=O)[C@H](CO)NC(=O)[C@@H](NC(=O)C(C)(Cc2ccccc2F)NC(=O)[C@@H](NC(=O)CNC(=O)C(CCC#N)NC(=O)C(C)(C)NC(=O)[C@@H](N)Cc2c[nH]cn2)[C@H](C)O)[C@H](C)O)C(=O)NC(CCCc2ccccc2F)C(N)=O)cc1 (single isomer, unassigned) in your answer.
> 1440 min

Name the recorded half-life at 2 μM of the item CCc1cc(OC)ccc1-c1ccc(CC(NC(=O)[C@H](CC(=O)O)NC(=O)[C@H](CO)NC(=O)[C@@H](NC(=O)[C@H](Cc2ccccc2)NC(=O)[C@@H](NC(=O)CNC(=O)C(CCC#N)NC(=O)C(C)(C)NC(=O)[C@@H](N)Cc2c[nH]cn2)[C@@H](C)O)[C@@H](C)O)C(=O)NC(CCCc2ccccc2C(F)(F)F)C(N)=O)cc1 (single isomer, unassigned) in your answer.
30 min

Name the recorded half-life at 2 μM of the item CCc1cc(OC)ccc1-c1ccc(CC(NC(=O)[C@H](CC(=O)O)NC(=O)[C@H](CO)NC(=O)[C@@H](NC(=O)[C@H](Cc2ccccc2)NC(=O)[C@@H](NC(=O)CNC(=O)C(CCC#N)NC(=O)C(C)(C)NC(=O)[C@@H](N)Cc2c[nH]cn2)[C@@H](C)O)[C@@H](C)O)C(=O)NC(CCCc2ccccc2)C(N)=O)cc1 (single isomer, unassigned) in your answer.
> 1440 min

Name the recorded half-life at 2 μM of the item CCc1cc(OC)ccc1-c1ccc(CC(NC(=O)[C@H](CC(=O)O)NC(=O)[C@H](CO)NC(=O)[C@@H](NC(=O)[C@H](Cc2ccccc2)NC(=O)[C@@H](NC(=O)CNC(=O)C(CCC#N)NC(=O)C(C)(C)NC(=O)[C@@H](N)Cc2c[nH]cn2)[C@@H](C)O)[C@@H](C)O)C(=O)NC(CCCc2cccc(Cl)c2)C(N)=O)cc1 (single isomer, unassigned) in your answer.
30 min

###

Listed next: entries and their corresponding half-life at 2 μM.
Assay: Stability in simulated gastric fluid
Assay type: in vitro ADME
Details: 2 μM peptidomimetic, simulated gastric fluid pH 1.5, 37° C.; read-out: half-life (t1/2) when incubated with simulated gastric fluid
Give just the number in min; leave the unit off.

molecule	half-life at 2 μM [min]
CCc1cc(OC)ccc1-c1ccc(CC(NC(=O)[C@H](CC(=O)O)NC(=O)[C@H](CO)NC(=O)[C@@H](NC(=O)[C@H](Cc2ccccc2)NC(=O)[C@@H](NC(=O)CNC(=O)C(CCC#N)NC(=O)C(C)(C)NC(=O)[C@@H](N)Cc2c[nH]cn2)[C@@H](C)O)[C@@H](C)O)C(=O)NC(CCCc2ccc(F)cc2F)C(N)=O)cc1 (single isomer, unassigned)	30

Could you now look at the following molecule, please?
Name the recorded half-life at 2 μM of the item CCc1cc(OC)ccc1-c1ccc(CC(NC(=O)[C@H](CC(=O)O)NC(=O)[C@H](CO)NC(=O)[C@@H](NC(=O)[C@H](Cc2ccccc2)NC(=O)[C@@H](NC(=O)CNC(=O)C(CCC#N)NC(=O)C(C)(C)NC(=O)[C@@H](N)Cc2c[nH]cn2)[C@@H](C)O)[C@@H](C)O)C(=O)NC(CCCc2cccc(Cl)c2)C(N)=O)cc1 (single isomer, unassigned) in your answer.
30

###

Test: Stability in human plasma
Format: in vitro ADME
Conditions: pH 7.8; 2 μM peptidomimetic, pooled human plasma, 37° C.; read-out: half-life (t1/2) when incubated with human plasma
readout-label: half-life at 2 μM (h)
Give just the number in h; leave the unit off.

Name the recorded half-life at 2 μM of the item CCc1cc(OC)ccc1-c1ccc(CC(C(=O)N(C)C(CCCc2ccccc2F)C(N)=O)N(C)C(=O)[C@H](CC(=O)O)N(C)C(=O)[C@H](CO)NC(=O)[C@@H](NC(=O)C(C)(Cc2ccccc2F)NC(=O)[C@@H](NC(=O)CNC(=O)C(CCC#N)NC(=O)C(C)(C)NC(=O)[C@@H](N)Cc2c[nH]cn2)[C@H](C)O)[C@H](C)O)cc1 (single isomer, unassigned) in your answer.
8
